- Test details: Transepithelial transport of theaflavins across Caco-2 cell monolayers, with or without efflux transporter inhibitors
- Assay type: in vitro ADME, Human
- Protocol conditions: human, Caco-2, Caco-2 monolayers, basolateral to apical, after 2 h incubation; read-out: recovery of theaflavins in secretory transport
Entries and their recovery at 2 h, 200 μM values follow.

Prompt line: Can you look up the measured recovery at 2 h, 200 μM of O=C(O[C@@H]1Cc2c(O)cc(O)cc2O[C@@H]1c1cc(O)c(=O)c2c(O)c(O)cc([C@H]3Oc4cc(O)cc(O)c4C[C@H]3OC(=O)c3cc(O)c(O)c(O)c3)c2c1)c1cc(O)c(O)c(O)c1 [TFDG, theaflavin-3, 3’-digallate] for me?
Response line: 24.7%

Next:
Prompt line: Can you look up the measured recovery at 2 h, 200 μM of O=c1c(O)cc([C@H]2Oc3cc(O)cc(O)c3C[C@H]2O)cc2c([C@H]3Oc4cc(O)cc(O)c4C[C@H]3O)cc(O)c(O)c12 for me?
Response line: 48.9%

Prompt line: Can you look up the measured recovery at 2 h, 200 μM of O=C(O[C@@H]1Cc2c(O)cc(O)cc2O[C@@H]1c1cc(O)c(=O)c2c(O)c(O)cc([C@H]3Oc4cc(O)cc(O)c4C[C@H]3O)c2c1)c1cc(O)c(O)c(O)c1 [TF3G, theaflavin-3-gallate] for me?
Response line: 47.6%

Prompt line: Can you look up the measured recovery at 2 h, 200 μM of O=C(O[C@@H]1Cc2c(O)cc(O)cc2O[C@@H]1c1cc(O)c(O)c2c(=O)c(O)cc([C@H]3Oc4cc(O)cc(O)c4C[C@H]3O)cc12)c1cc(O)c(O)c(O)c1 [TF3’G, theaflavin-3’-gallate] for me?
Response line: 31.6%
